# Tested system: factor D (Homo sapiens, UniProt P00746)
# Construct: made in house; host or cells: E. coli
# Sequence (P00746 26-253): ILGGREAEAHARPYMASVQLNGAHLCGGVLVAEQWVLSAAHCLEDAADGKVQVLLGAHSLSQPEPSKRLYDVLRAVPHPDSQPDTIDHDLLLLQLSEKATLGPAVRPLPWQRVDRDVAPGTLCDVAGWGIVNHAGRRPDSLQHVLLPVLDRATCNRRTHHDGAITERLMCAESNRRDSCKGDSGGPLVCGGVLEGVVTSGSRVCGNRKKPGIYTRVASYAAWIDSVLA
# Experiment summary: factor D inhibition assay of Biological Example 2
# Type: biochemical
pIC50: −log10 of the molar value.
Experimental endpoint: pIC50

Sample answers from the record:
molecule=Cc1ccc(S(=O)(=O)n2ncc3c(COc4ccccc4CC(=O)O)cc(-c4cccc([C@H](N)CO)c4)cc32)cc1 quantitative_readout=7.85
molecule=CCC[C@@H](N)c1cccc(-c2cc(COC)cc(COc3ccccc3CC(=O)O)c2)c1 quantitative_readout=7.17
molecule=CCC[C@@H](N)c1cccc(-c2cc(COc3ccccc3CC(=O)O)cc(NCC3CC3)c2)c1 quantitative_readout=7.16
molecule=NCc1cccc(-c2c[nH]c(C(=O)Nc3ccccc3CC(=O)O)n2)c1 quantitative_readout=5.71
molecule="NCc1cc(F)cc(-c2cc(NC3CCOC3)cc(C(=O)Nc3ccccc3CC(=O)O)c2)c1 (centres unmarked)" quantitative_readout=8.05
molecule=C[C@@H](N)c1cccc(-c2cc(COc3ccccc3CC(=O)O)cc(OCc3ncn(C)n3)c2)c1F quantitative_readout=7.82
molecule=C[C@@H](N)c1cccc(-c2cc(COc3ccccc3CC(=O)O)cc(CN3CCOCC3)c2)c1F quantitative_readout=7.28
molecule=NCc1ccc(F)c(-c2cccc(C(=O)Nc3ccccc3CC(=O)O)c2)c1 quantitative_readout=5.34

(P) N#Cc1cc(COc2ccccc2CC(=O)O)cc(-c2cccc(CN)c2)c1
(Q) NC(CF)c1cccc(-c2cccc(COc3ccccc3CC(=O)O)c2)c1F (centres unmarked) [Example 196-F]
(R) C[C@@H](N)c1cccc(-c2cc(COc3ccccc3CC(=O)O)cc(C(=O)N(C)C)c2)c1F
(S) COCc1cc(COc2ccccc2CC(=O)O)cc(-c2cccc([C@@H](C)N)c2F)c1
(T) NCc1nccc(-c2cccc(COc3ccccc3CC(=O)O)c2)n1
[ask] Sort (5 molecules) by pIC50: min first. // respond by listing labels in the order requested
[reply] R, T, P, S, Q

(a) COCCOc1cc(C(=O)Nc2ccccc2CC(=O)O)cc(-c2cc(F)cc(CN)c2)c1
(b) C[C@H](N)c1cccc(-c2cc(COc3ccccc3CC(=O)O)cc(OCc3nccs3)c2)c1F
(c) N[C@H](CO)c1cccc(-c2cc(CCCF)cc(COc3ccccc3CC(=O)O)c2)c1
(d) N[C@H](CO)c1cccc(-c2cccc(COc3ccccc3CC(=O)O)c2F)c1
(e) NCc1cccc(-c2cc(COc3ccccc3CC(=O)O)cc(NC[C@@H]3CCCO3)c2)c1
[ask] Provide the items ranked by increasing pIC50. As an answer, provide the labels arranged in the order called for.
[reply] d, a, c, b, e

(I) C[C@H](N)c1cccc(-c2cc(CCCF)cc(COc3ccccc3CC(=O)O)c2)c1F
(II) CNC(c1cc(COc2ccccc2CC(=O)O)cc(-c2cccc(CN)c2)c1)C(F)(F)F (centres unmarked)
(III) CC(C)[C@@H](N)c1cccc(-c2cccc(COc3ccccc3CC(=O)O)c2)c1
(IV) NCc1cc(F)cc(-c2cccc(C(=O)Nc3ccc(F)cc3CC(=O)O)c2)c1
(V) NCc1cccc(-c2ccc3c(c2)C(Oc2ccccc2CC(=O)O)CCC3)c1 (single isomer, unassigned) [175 b) (tr = 9.5 min)]
[ask] Your job: order these 5 records by pIC50, ascending. Form entry: ranked labels (order as requested).
[reply] III, IV, V, II, I
(III: 5.50, IV: 6.29, V: 6.60, II: 7.72, I: 7.96)

(A) CC(O)c1cc(COc2ccccc2CC(=O)O)cc(-c2cccc([C@H](N)CO)c2)c1 (single isomer, unassigned) [116-E b) (tr = 3.8 min)]
(B) Cc1cccc(CC(=O)O)c1NC(=O)c1cccc(-c2cc(F)cc(CN)c2)c1
(C) NCc1cc(F)cc(-c2cccc(C(=O)Nc3cc(F)ccc3CC(=O)O)c2)c1
[ask] Rank items: key pIC50, increasing. Please respond with the labels ordered as the question requires.
[reply] C, B, A

(I) C[C@@H](N)c1cccc(-c2cc(NCC3CC3)c3c(c2)C(Oc2ccccc2CC(=O)O)CCC3)c1F (some centres unmarked)
(II) CC(C)(N)c1cccc(-c2cccc(COc3ccccc3CC(=O)O)c2)c1F
[ask] // returns I or II , whichever has the lower pIC50 The response must carry the label of the picked entry.
[reply] II
(II: 5.49, I: 7.89)

(a) C[C@@H](N)c1cccc(-c2cc(NC[C@@H]3CCCO3)cc(N(C)Cc3ccccc3CC(=O)O)c2)c1F
(b) NCc1cc(F)cc(-c2cc(C(=O)Nc3ccccc3CC(=O)O)cc(-c3cnoc3)c2)c1
[ask] Look at a and b . Which one has the lower recorded pIC50 number? Which one? Tell me its label.
[reply] a
(a: 7.26, b: 7.77)

(a) C[C@@H](N)c1cccc(-c2cc(COc3ccccc3CC(=O)O)cc(OCC3CC3)c2)c1F
(b) NCc1cc(F)cc(-c2cccc(C(=O)Nc3cc(Br)ccc3CC(=O)O)c2)c1
[ask] Lower value of pIC50 belongs to which: a or b ? Give the label under which the chosen entry appears.
[reply] b

* * *

# Tested system: factor D (Homo sapiens, UniProt P00746)
# Construct: made in house; host or cells: E. coli
# Experiment summary: factor D inhibition assay of Biological Example 2
# Assay type: biochemical
pIC50: −log10 of the molar value.
Experimental endpoint: pIC50

Solved cases (2 shown):
smi=Cc1cc(-c2cccc([C@H](N)CO)c2)cc(COc2ccccc2CC(=O)O)n1 experimental_endpoint=pIC50 quantitative_readout=7.62
smi=CCc1cc(COc2ccccc2CC(=O)O)cc(-c2cccc([C@H](N)CO)c2)c1 experimental_endpoint=pIC50 quantitative_readout=7.52

(A) COc1ccc(CC(=O)O)c(NC(=O)c2cccc(-c3cc(F)cc(CN)c3)n2)c1
(B) CNCc1cccc(-c2cccc(COc3ccccc3CC(=O)O)c2)c1
[ask] When the recorded pIC50 values are compared, which is smaller: that of A or that of B ? Give the label of your selection.
[reply] B

* * *

# Tested system: factor D (Homo sapiens, UniProt P00746)
# Construct: made in house; host or cells: E. coli
# Experiment summary: factor D inhibition assay of Biological Example 2
# Assay type: biochemical
Experimental endpoint: IC50 (nM)

smi=C[C@@H](N)c1cccc(-c2cc(CCC3CCOCC3)cc(COc3ccccc3CC(=O)O)c2)c1F tested_system="factor D (Homo sapiens, UniProt P00746)" experimental_endpoint=IC50 quantitative_readout=140
smi=CCCC[C@@H](N)c1cccc(-c2cccc(COc3ccccc3CC(=O)O)c2)c1 tested_system="factor D (Homo sapiens, UniProt P00746)" experimental_endpoint=IC50 quantitative_readout=642

(a) C[C@@H](N)c1cccc(-c2cc(COc3ccccc3CC(=O)O)cc(C3CCCC3)c2)c1F
(b) Cc1cc(COc2ccccc2CC(=O)O)cc(-c2cccc([C@@H](C)N)c2F)c1
[ask] For this pair, a and b , which shows a numerically higher IC50? Reply with the label of the item you choose.
[reply] b
(b: 12 nM, a: 3 nM)

* * *

# Tested system: factor D (Homo sapiens, UniProt P00746)
# Construct: made in house; host or cells: E. coli
# Experiment summary: factor D inhibition assay of Biological Example 2
# Type: biochemical
Experimental endpoint: IC50 (nM)

Some compounds with recorded IC50:
compound="C[C@@H](N)c1cccc(-c2cc(CCc3ccn(C)n3)cc(COc3ccccc3CC(=O)O)c2)c1F [Example 218-I]" unit_name=nM quantitative_readout=10
compound="C[C@@H](N)c1cccc(-c2cc(COc3ccccc3CC(=O)O)cc(NCCF)c2)c1F [Example 216-K]" unit_name=nM quantitative_readout=2

(1) Cc1ccc(S(=O)(=O)n2ncc3c(COc4ccccc4CC(=O)O)cc(-c4cccc(CN)c4)cc32)cc1 [Example 178]
(2) C[C@@H](N)c1cccc(-c2cc(CCc3ccncc3)cc(COc3ccccc3CC(=O)O)c2)c1F [Example 216-P]
[ask] Between the entries labeled 1 and 2 , whose measured IC50 is lower? Answer = label.
[reply] 1
(1: 2 nM, 2: 13 nM)

(I) Cc1ccc(COc2ccccc2CC(=O)O)cc1-c1cccc([C@H](N)CO)c1 [Example 116-K]
(II) NCc1cccc(-c2cccc(COc3ccccc3C(NC(=O)C3CC3c3ccccc3)C(=O)O)c2)c1 (single isomer, unassigned) [Example 297-B]
[ask] Look at I and II . Which one has the lower recorded IC50 number? Response format: the label of the selected entry.
[reply] II
(II: 6 nM, I: 108 nM)

(a) CC(O)c1cc(COc2ccccc2CC(=O)O)cc(-c2cccc([C@H](N)CO)c2)c1 (mixture of isomers) [116-E a)]
(b) C[C@@H](N)c1cccc(-c2cc(COc3ccccc3CC(=O)O)cc(C(C)(C)O)c2)c1F [Example 120-G]
[ask] # return whichever of a and b has the smaller IC50 Return value: the label identifying the chosen record.
[reply] a
(a: 9 nM, b: 13 nM)

(I) Nc1cc(-c2cccc([C@H](N)CO)c2)cc(COc2ccccc2CC(=O)O)c1F [155 a)]
(II) NCc1cccc(-c2cc(OCc3ncccn3)cc(C(=O)Nc3ccccc3CC(=O)O)c2)c1 [Example 61-B]
[ask] Lab note: record which item had the higher IC50, I or II . Pick one and reply with its label.
[reply] II
(II: 32 nM, I: 3 nM)

(I) NCc1cccc(-c2ccc3c(c2)C(Oc2ccccc2CC(=O)O)CC3)c1 (racemic) [Example 162]
(II) NCc1cc(F)cc(-c2csc(C(=O)Nc3ccccc3CC(=O)O)n2)c1 [Example 28-B]
[ask] # argmax over IC50 for candidates I and II # reply format: chosen label
[reply] II

(I) CCC[C@@H](N)c1cccc(-c2cc(COc3ccccc3CC(=O)O)cc(-c3cnn(C)c3)c2)c1F [Example 203]
(II) C[C@@H](N)c1cccc(-c2cc(COc3ccccc3CC(=O)O)cc(COC3CCOc4ccc(Cl)cc43)c2)c1 (stereo partly shown) [Example 120-T]
[ask] From the items above, decide which of I and II has the lower IC50 reading. Reply with the label of the item you choose.
[reply] II
(II: 8 nM, I: 54 nM)

(P) COCCn1cc(-c2cc(COc3ccccc3CC(=O)O)cc(-c3cccc(CN)c3)c2)cn1 [Example 209-E]
(Q) CC(C(=O)O)c1ccccc1OCc1cccc(-c2cccc(CN)c2)c1 (stereo not shown) [Example 290]
[ask] Would you mind telling me which has the lower recorded IC50 between P and Q ? // output: label of the selected item
[reply] P
